- Experiment description: Pharmacokinetics/tissue distribution of GQD constituents in the colons of mice after oral GQD
- Assay type: in vivo, Kunming mice
- Run parameters: both, Kunming, mouse, in vivo; colon, mice, oral GQD extract 6.1 g/kg
- Description: The liver and the colon homogenates were prepared with 10 times (V: W) the volume of ascorbic acid solution (200 μg/ml). Then the homogenates were pretreated as plasma to obtain the tissue samples for LC-MS/MS analysis. […] Then the C-T curves of the constituents in the plasma and the tissue homogenates were respectively drawn and their pharmacokinetic parameters were respectively calculated. […] The results were expressed as mean ± SD.
Measured property: Cmax (ng/g)
# value in ng/g; strip the unit string

For the compound shown here, O=c1c(-c2ccc(O)cc2)coc2cc(O[C@@H]3O[C@H](CO)[C@@H](O)[C@H](O)[C@H]3O)ccc12 , give the reported Cmax.
114
